target: EGFR exon 20 ASV Ins V769_D770 (Ba/F3 cells) (Homo sapiens, UniProt P00533, INS769ASV); construct: expressed in transfected cells; host or cells: Ba/F3 (murine pro-B cells), retroviral transduction, puromycin selection, IL3-independent pool; test: Inhibitor activity on EGFR-dependent cell growth (CellTiter-Glo, 72 h), Ba/F3 EGFR exon 20 ASV Ins; format: cell-based; conditions: read-out: BaF3 ASV IC50
Sequence (P00533 with tags, fused parts or gaps INS769ASV): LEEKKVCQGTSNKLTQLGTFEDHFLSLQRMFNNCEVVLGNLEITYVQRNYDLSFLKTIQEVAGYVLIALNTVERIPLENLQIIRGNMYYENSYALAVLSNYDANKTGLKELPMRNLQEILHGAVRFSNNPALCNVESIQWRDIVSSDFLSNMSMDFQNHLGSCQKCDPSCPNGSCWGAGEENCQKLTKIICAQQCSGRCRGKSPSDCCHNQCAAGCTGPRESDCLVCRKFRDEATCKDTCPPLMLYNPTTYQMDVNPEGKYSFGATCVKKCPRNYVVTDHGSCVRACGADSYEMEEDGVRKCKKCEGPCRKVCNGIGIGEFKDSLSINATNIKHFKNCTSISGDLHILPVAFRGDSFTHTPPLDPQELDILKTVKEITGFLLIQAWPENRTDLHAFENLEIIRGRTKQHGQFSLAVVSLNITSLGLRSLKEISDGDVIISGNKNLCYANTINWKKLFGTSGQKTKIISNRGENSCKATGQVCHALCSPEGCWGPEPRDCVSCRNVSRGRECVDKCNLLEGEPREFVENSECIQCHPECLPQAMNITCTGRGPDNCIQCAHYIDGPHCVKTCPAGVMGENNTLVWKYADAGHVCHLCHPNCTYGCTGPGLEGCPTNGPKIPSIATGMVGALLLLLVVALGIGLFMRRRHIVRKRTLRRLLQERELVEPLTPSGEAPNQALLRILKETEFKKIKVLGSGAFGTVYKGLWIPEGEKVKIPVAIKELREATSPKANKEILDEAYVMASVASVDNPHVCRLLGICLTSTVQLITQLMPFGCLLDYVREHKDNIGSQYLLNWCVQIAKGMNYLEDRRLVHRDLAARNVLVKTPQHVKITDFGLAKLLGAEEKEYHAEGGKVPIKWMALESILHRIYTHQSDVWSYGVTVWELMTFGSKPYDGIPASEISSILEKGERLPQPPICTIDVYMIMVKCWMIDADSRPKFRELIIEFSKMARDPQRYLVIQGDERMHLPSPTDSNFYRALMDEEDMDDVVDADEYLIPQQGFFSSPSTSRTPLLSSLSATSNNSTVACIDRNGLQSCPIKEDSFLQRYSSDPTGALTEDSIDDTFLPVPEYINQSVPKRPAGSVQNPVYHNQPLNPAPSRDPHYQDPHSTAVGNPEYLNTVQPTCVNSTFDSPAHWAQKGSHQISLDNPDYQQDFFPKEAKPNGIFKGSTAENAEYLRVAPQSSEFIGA
IC50 for assorted molecules

Here is how some molecules turned out for IC50.
>>> data_value("COc1c(Cl)cccc1Nc1c(-c2ccnc(NC[C@H]3CCO3)n2)[nH]c2c1C(=O)NCC2")
"> 1000 nM"
>>> data_value("COc1ncc2nccc(-c3[nH]c4c(c3Nc3cccc(F)c3OC)C(=O)NC(C(F)(F)F)C4)c2n1 (stereo not drawn)")
"100 to 1000 nM"
>>> data_value("COc1c(Cl)cccc1Nc1c(-c2ccnc(-c3ccncn3)n2)[nH]c2c1C(=O)NCC2")
"> 1000 nM"
>>> data_value("COCc1ccc2nccc(-c3[nH]c4c(c3Nc3cccc(Cl)c3OC)C(=O)NCC4)c2n1")
"< 100 nM"
>>> data_value("COc1c(Cl)cccc1Nc1c(-c2ccncc2F)[nH]c2c1C(=O)NC[C@H]2CC(C)(C)O")
"< 100 nM"
>>> data_value("COc1c(Cl)cccc1Nc1c(-c2nc(N)ncc2F)[nH]c2c1C(=O)NCC2")
"100 to 1000 nM"
>>> data_value("Cc1c(C#N)cccc1Nc1c(-c2ccnc(N)n2)[nH]c2c1C(=O)NCC2")
"> 1000 nM"
>>> data_value("COc1c(Cl)cccc1Nc1c(-c2ccncc2F)[nH]c2c1C(=O)NC[C@H]2CCF")
"100 to 1000 nM"

The molecule identified as COc1c(F)cccc1Nc1c(-c2ccnc3cc(F)cnc23)[nH]c2c1C(=O)NCC2 registered its IC50 at 100 to 1000 nM

Consider COc1cc2nccc(-c3[nH]c4c(c3Nc3cccc(Cl)c3OC)C(=O)NCC4)c2nc1OCCN(C)C . Its measured IC50 is < 100 nM

# molecule C=CC(=O)N1CCC(Oc2nc3c(-c4[nH]c5c(c4Nc4cccc(F)c4OC)C(=O)NCC5)ccnc3cc2OC)CC1 ; its IC50 = < 100 nM

Input CNc1nccc(-c2[nH]c3c(c2Nc2cccc(F)c2OC)C(=O)NCC3)n1 . Output IC50: 100 to 1000 nM

Lab note: measured IC50 of COc1c(Cl)cccc1Nc1c(-c2ccnc(NC(C)C)n2)[nH]c2c1C(=O)NCC2 was 100 to 1000 nM
